System: CCRF-CEM
Test: Concentration required to protect CEM cells against cytopathicity of HIV-2 by 50%
Type: functional, cell-based
Conditions: Homo sapiens
measured.parameter: EC50 (nM)

Record excerpt, results attached:
COCCOCCOCCOc1ccc(OP(=O)(NC(C)C(=O)OC)OCC2C=CC(n3cc(C)c(=O)[nH]c3=O)O2)cc1 (configuration not stated)    1300
COC(=O)C(C)NP(=O)(OC[C@@H]1C=C[C@H](n2cc(C)c(=O)[nH]c2=O)O1)Oc1ccc(OC)cc1 (some centres not stated)    53
COC(=O)C(C)NP(=O)(OCC1C=CC(n2cc(C)c(=O)[nH]c2=O)O1)Oc1ccc(CC(NC(=O)OC(C)(C)C)C(=O)OC)cc1 (configuration not stated)    700

[1] COCCOc1ccc(OP(=O)(NC(C)C(=O)OC)OCC2C=CC(n3cc(C)c(=O)[nH]c3=O)O2)cc1 (configuration not stated)
[2] COCCOCCOc1ccc(OP(=O)(NC(C)C(=O)OC)OCC2C=CC(n3cc(C)c(=O)[nH]c3=O)O2)cc1 (configuration not stated)
Just tell me: smaller EC50 value, 1 or 2 ? Identify your selection by its label. 1
(1: 600 nM, 2: 1000 nM)

[a] COC(=O)C(N)Cc1ccc(OP(=O)(NC(C)C(=O)OC)OCC2C=CC(n3cc(C)c(=O)[nH]c3=O)O2)cc1 (configuration not stated)
[b] CCOCCOc1ccc(OP(=O)(NC(C)C(=O)OC)OCC2C=CC(n3cc(C)c(=O)[nH]c3=O)O2)cc1 (configuration not stated)
Just tell me: smaller EC50 value, a or b ? Identify your selection by its label. b
(b: 250 nM, a: 10000 nM)
